# tested.system: Neuronal acetylcholine receptor; alpha3/beta4 (Rattus norvegicus, UniProt P04757+P12392)
# Sequence (P04757 whole entry): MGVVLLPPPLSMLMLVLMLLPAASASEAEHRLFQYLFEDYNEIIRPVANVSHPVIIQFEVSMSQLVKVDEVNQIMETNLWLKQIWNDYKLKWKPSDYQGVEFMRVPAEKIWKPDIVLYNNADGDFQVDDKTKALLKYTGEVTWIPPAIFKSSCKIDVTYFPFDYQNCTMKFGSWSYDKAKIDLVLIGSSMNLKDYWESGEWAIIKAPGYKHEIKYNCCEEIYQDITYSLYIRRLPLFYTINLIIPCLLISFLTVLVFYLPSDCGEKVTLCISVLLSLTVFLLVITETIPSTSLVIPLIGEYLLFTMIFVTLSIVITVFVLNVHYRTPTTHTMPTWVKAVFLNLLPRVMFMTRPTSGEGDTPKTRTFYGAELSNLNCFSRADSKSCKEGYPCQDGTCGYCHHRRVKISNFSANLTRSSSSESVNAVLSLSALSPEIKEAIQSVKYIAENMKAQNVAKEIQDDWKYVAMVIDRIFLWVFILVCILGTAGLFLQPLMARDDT
# Sequence (P12392 whole entry): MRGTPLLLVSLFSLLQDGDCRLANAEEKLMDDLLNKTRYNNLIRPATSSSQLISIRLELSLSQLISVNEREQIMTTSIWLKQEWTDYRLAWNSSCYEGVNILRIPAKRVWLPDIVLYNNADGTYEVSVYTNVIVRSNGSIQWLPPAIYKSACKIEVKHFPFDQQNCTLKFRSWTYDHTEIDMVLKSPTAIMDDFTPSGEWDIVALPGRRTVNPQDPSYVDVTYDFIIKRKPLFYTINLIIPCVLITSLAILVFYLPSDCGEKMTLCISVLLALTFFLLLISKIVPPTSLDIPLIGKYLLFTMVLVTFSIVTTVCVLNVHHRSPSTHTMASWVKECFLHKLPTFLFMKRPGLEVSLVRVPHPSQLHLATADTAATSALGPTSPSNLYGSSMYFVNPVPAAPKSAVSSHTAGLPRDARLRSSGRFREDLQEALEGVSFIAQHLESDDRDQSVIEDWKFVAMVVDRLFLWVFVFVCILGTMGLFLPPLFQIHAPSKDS
# experimental.protocol: Antagonist activity at rat alpha3beta4 nACHR expressed in xenopous laevis oocyte assessed as inhibition of ACh induced channel current after 5 mins at -70 mV holding potential by two electrode voltage clamp method
pIC50: −log10 of the molar value. Where a SMILES comes first, the peptide text is derived from it. Bridges are numbered along the chain shown (N, C = ends). [ ]: non-standard residue; d: D form. hMet = CSCCC[C@H](N)C(=O)O
readout.label: pIC50

>  <compound>
CSCCC[C@@H]1NC(=O)[C@H](C)NC(=O)[C@H](CO)NC(=O)[C@@H]2CSSC[C@H](NC(=O)CN)C(=O)N[C@@H](CSSC[C@@H](C(N)=O)NC(=O)[C@H](CCCNC(=N)N)NC(=O)[C@@H]3CCCN3C(=O)[C@H](CO)NC1=O)C(=O)N[C@@H](CO)C(=O)N[C@@H](Cc1cnc[nH]1)C(=O)N1CCC[C@H]1C(=O)N[C@@H](C(C)C)C(=O)N2 (H-GCCSHPVCSA[hMet]SPRC-NH2; disulfide 2-8, 3-15)

>  <readout.value>
8.01

$$$$

The values you see were collected from ChEMBL document CHEMBL4011630.
